system: ChaGo-K-1; experiment: relative viability (nuclei count vs DMSO), 5 days (fraction); higher = more cells survive; details: first compound 0.01 µM
Here, each record is paired with measured relative viability data.
Answer field: number only, no words.

Check out these entries, answers already filled in.
- compound: "CC(C)Oc1cc(Nc2nc(N[C@@H](C)c3ccc(F)cn3)ncc2Cl)n[nH]1 [AZ23] + Cc1nc(Nc2ncc(C(=O)Nc3c(C)cccc3Cl)s2)cc(N2CCN(CCO)CC2)n1 [Dasatinib] (partner 0.075 µM)"
  val: 0.687
- compound: "CC(C)Oc1cc(Nc2nc(N[C@@H](C)c3ccc(F)cn3)ncc2Cl)n[nH]1 [AZ23] + Nc1ncn([C@H]2C[C@H](O)[C@@H](CO)O2)c(=O)n1 [Decitabine] (partner 2 µM)"
  val: 0.567
- compound: "CC(C)Oc1cc(Nc2nc(N[C@@H](C)c3ccc(F)cn3)ncc2Cl)n[nH]1 [AZ23] + CC(C)C[C@H](NC(=O)[C@H](Cc1ccccc1)NC(=O)c1cnccn1)B(O)O [Bortezomib] (partner 0.002 µM)"
  val: 0.96

Consider now this further compound.
Qu. Entry CC(C)Oc1cc(Nc2nc(N[C@@H](C)c3ccc(F)cn3)ncc2Cl)n[nH]1 [AZ23] + CS(=O)(=O)N1CCN(Cc2cc3nc(-c4cccc5[nH]ncc45)nc(N4CCOCC4)c3s2)CC1 [Pictilisib] (partner 1 µM) , system ChaGo-K-1: what relative viability was measured?
Ans. 0.658

====

system: LC-2-ad; assay: relative viability (nuclei count vs DMSO), 5 days (fraction); higher = more cells survive; details: first compound 0.1265 µM
result.type: relative viability

Check out these entries, answers already filled in.
- molecule: "COc1cc(N2CCC(C(N)=O)CC2)ccc1Nc1nc(N)c(Cl)c(Nc2ccccc2S(=O)(=O)C(C)C)n1 [HG-5-88-01] + NC(=O)Nc1cc(-c2cccc(F)c2)sc1C(=O)N[C@H]1CCCNC1 [AZD7762] (partner 0.2 µM)"
  assayed.system: "LC-2-ad"
  val: 0.76
- molecule: "COc1cc(N2CCC(C(N)=O)CC2)ccc1Nc1nc(N)c(Cl)c(Nc2ccccc2S(=O)(=O)C(C)C)n1 [HG-5-88-01] + COc1cccc2cc(-c3nc([C@H]4CC[C@H](C(=O)O)CC4)n4ncnc(N)c34)[nH]c12 [OSI-027] (partner 0.5 µM)"
  assayed.system: "LC-2-ad"
  val: 0.944
- molecule: "COc1cc(N2CCC(C(N)=O)CC2)ccc1Nc1nc(N)c(Cl)c(Nc2ccccc2S(=O)(=O)C(C)C)n1 [HG-5-88-01] + CC1(C)CCC(c2ccc(Cl)cc2)=C(CN2CCN(c3ccc(C(=O)NS(=O)(=O)c4ccc(N[C@H](CCN5CCOCC5)CSc5ccccc5)c(S(=O)(=O)C(F)(F)F)c4)cc3)CC2)C1 [Navitoclax] (partner 0.5 µM)"
  assayed.system: "LC-2-ad"
  val: 0.45
- molecule: "C[C@@H]1CN(CC(=O)Nc2ccc3c(c2)Cc2cccc(-c4cc(=O)cc(N5CCOCC5)o4)c2S3)C[C@H](C)O1 + CS(=O)(=O)N1CCN(Cc2cc3nc(-c4cccc5[nH]ncc45)nc(N4CCOCC4)c3s2)CC1 [Pictilisib] (partner 1 µM)"
  assayed.system: "LC-2-ad"
  val: 0.43
- molecule: "C[C@@H]1CN(CC(=O)Nc2ccc3c(c2)Cc2cccc(-c4cc(=O)cc(N5CCOCC5)o4)c2S3)C[C@H](C)O1 + Cc1nc(NC(=O)N2CCC[C@H]2C(N)=O)sc1-c1ccnc(C(C)(C)C(F)(F)F)c1 [Alpelisib] (partner 2 µM)"
  assayed.system: "LC-2-ad"
  val: 0.864
- molecule: "Clc1ccc(Nc2nnc(Cc3ccncc3)c3ccccc23)cc1 [Vatalanib] + NC(=O)Nc1cc(-c2cccc(F)c2)sc1C(=O)N[C@H]1CCCNC1 [AZD7762] (partner 0.2 µM)"
  assayed.system: "LC-2-ad"
  val: 0.762

Qu. I have this molecule here, Clc1ccc(Nc2nnc(Cc3ccncc3)c3ccccc23)cc1 [Vatalanib] + O=C(c1cc(Cc2n[nH]c(=O)c3ccccc23)ccc1F)N1CCN(C(=O)C2CC2)CC1 [Olaparib] (partner 8 µM) , and I need its recorded relative viability.
Ans. 0.67

Qu. I have this molecule here, COc1cc(N2CCC(C(N)=O)CC2)ccc1Nc1nc(N)c(Cl)c(Nc2ccccc2S(=O)(=O)C(C)C)n1 [HG-5-88-01] + N=C(N)NC(=N)NCCc1ccccc1 [Phenformin] (partner 250 µM) , and I need its recorded relative viability.
Ans. 0.69

====

system: NCI-H2342; assay: relative viability (nuclei count vs DMSO), 5 days (fraction); higher = more cells survive; conditions: first compound 0.04 µM
result.type: relative viability
Answer field: number only, no words.

Check out these entries, answers already filled in.
- compound: "COc1cc(N2CCC(C(N)=O)CC2)ccc1Nc1nc(N)c(Cl)c(Nc2ccccc2S(=O)(=O)C(C)C)n1 [HG-5-88-01] + O=C(CCCCCCC(=O)Nc1ccccc1)NO [Vorinostat] (partner 1 µM)"
  assayed.system: "NCI-H2342"
  relative viability: 0.654
- compound: "Clc1ccc(Nc2nnc(Cc3ccncc3)c3ccccc23)cc1 [Vatalanib] + CC(=O)c1c(C)c2cnc(Nc3ccc(N4CCNCC4)cn3)nc2n(C2CCCC2)c1=O [Palbociclib] (partner 0.5 µM)"
  assayed.system: "NCI-H2342"
  relative viability: 0.489
- compound: "C[C@@H]1CN(CC(=O)Nc2ccc3c(c2)Cc2cccc(-c4cc(=O)cc(N5CCOCC5)o4)c2S3)C[C@H](C)O1 + O=C(c1cc(Cc2n[nH]c(=O)c3ccccc23)ccc1F)N1CCN(C(=O)C2CC2)CC1 [Olaparib] (partner 8 µM)"
  assayed.system: "NCI-H2342"
  relative viability: 0.567
- compound: "C[C@@H]1CN(CC(=O)Nc2ccc3c(c2)Cc2cccc(-c4cc(=O)cc(N5CCOCC5)o4)c2S3)C[C@H](C)O1 + NC(=O)Nc1cc(-c2cccc(F)c2)sc1C(=O)N[C@H]1CCCNC1 [AZD7762] (partner 0.2 µM)"
  assayed.system: "NCI-H2342"
  relative viability: 0.499
- compound: "Clc1ccc(Nc2nnc(Cc3ccncc3)c3ccccc23)cc1 [Vatalanib] + Cc1nc(Nc2ncc(C(=O)Nc3c(C)cccc3Cl)s2)cc(N2CCN(CCO)CC2)n1 [Dasatinib] (partner 0.075 µM)"
  assayed.system: "NCI-H2342"
  relative viability: 0.292
- compound: "C[C@@H]1CN(CC(=O)Nc2ccc3c(c2)Cc2cccc(-c4cc(=O)cc(N5CCOCC5)o4)c2S3)C[C@H](C)O1 + CCNC(=O)c1noc(-c2cc(C(C)C)c(O)cc2O)c1-c1ccc(CN2CCOCC2)cc1 [Luminespib] (partner 0.01 µM)"
  assayed.system: "NCI-H2342"
  relative viability: 0.706
- compound: "Clc1ccc(Nc2nnc(Cc3ccncc3)c3ccccc23)cc1 [Vatalanib] + NC(=O)Nc1cc(-c2cccc(F)c2)sc1C(=O)N[C@H]1CCCNC1 [AZD7762] (partner 0.2 µM)"
  assayed.system: "NCI-H2342"
  relative viability: 0.453
- compound: "COc1cc(N2CCC(C(N)=O)CC2)ccc1Nc1nc(N)c(Cl)c(Nc2ccccc2S(=O)(=O)C(C)C)n1 [HG-5-88-01] + Nc1ncn([C@H]2C[C@H](O)[C@@H](CO)O2)c(=O)n1 [Decitabine] (partner 2 µM)"
  assayed.system: "NCI-H2342"
  relative viability: 0.751

Consider now this further compound.
Qu. I have this compound here, COc1cc(N2CCC(C(N)=O)CC2)ccc1Nc1nc(N)c(Cl)c(Nc2ccccc2S(=O)(=O)C(C)C)n1 [HG-5-88-01] + COc1cc2c(Oc3ccc(NC(=O)C4(C(=O)Nc5ccc(F)cc5)CC4)cc3F)ccnc2cc1OCCCN1CCOCC1 [Foretinib] (partner 0.25 µM) , and I need its recorded relative viability.
Ans. 1.19

====

system: 201T; test: relative viability (nuclei count vs DMSO), 5 days (fraction); higher = more cells survive; conditions: first compound 0.03162 µM
Exam item: assign 1 to entries whose relative viability is below 0.4 and 0 to entries at or above 0.4. Note that a value of exactly 0.4 receives 0.

- compound: "CC(C)Oc1cc(Nc2nc(N[C@@H](C)c3ccc(F)cn3)ncc2Cl)n[nH]1 [AZ23] + CC(=O)c1c(C)c2cnc(Nc3ccc(N4CCNCC4)cn3)nc2n(C2CCCC2)c1=O [Palbociclib] (partner 0.5 µM)"
  assayed.system: "201T"
  label.class: 1

Qu. relative viability under 0.4? Item: CC(C)Oc1cc(Nc2nc(N[C@@H](C)c3ccc(F)cn3)ncc2Cl)n[nH]1 [AZ23] + CS(=O)(=O)N1CCN(Cc2cc3nc(-c4cccc5[nH]ncc45)nc(N4CCOCC4)c3s2)CC1 [Pictilisib] (partner 1 µM)
Ans. 0

Qu. relative viability under 0.4? Item: CC(C)Oc1cc(Nc2nc(N[C@@H](C)c3ccc(F)cn3)ncc2Cl)n[nH]1 [AZ23] + NC(=O)Nc1cc(-c2cccc(F)c2)sc1C(=O)N[C@H]1CCCNC1 [AZD7762] (partner 0.2 µM)
Ans. 0

Qu. relative viability under 0.4? Item: CC(C)Oc1cc(Nc2nc(N[C@@H](C)c3ccc(F)cn3)ncc2Cl)n[nH]1 [AZ23] + Cc1nc(Nc2ncc(C(=O)Nc3c(C)cccc3Cl)s2)cc(N2CCN(CCO)CC2)n1 [Dasatinib] (partner 0.075 µM)
Ans. 0

Qu. relative viability under 0.4? Item: CC(C)Oc1cc(Nc2nc(N[C@@H](C)c3ccc(F)cn3)ncc2Cl)n[nH]1 [AZ23] + N=C(N)NC(=N)NCCc1ccccc1 [Phenformin] (partner 250 µM)
Ans. 0
